# System: E18 rat cortical neuron-glia co-culture
# method_summary: fiber score / MBP score (myelination specific beyond OL differentiation) (ratio); higher = more myelination-specific MBP alignment
# condition_set: 5 µM; treatment time: 8 days (DIV5-DIV13)
# label = bin(measured fiber score / MBP score), where bins are bottom: < 0.7; middle: ≥ 0.7 and < 0.9; top: ≥ 0.9

As a guide, the following entries are already answered.
CC(=O)O[C@]1(C(C)=O)CC[C@H]2[C@@H]3C=C(C)C4=CC(=O)CC[C@]4(C)[C@H]3CC[C@@]21C [Megestrol acetate] : middle
COC(=O)Nc1nc2cc(C(=O)c3ccccc3)ccc2[nH]1 [Mebendazole] : bottom
CCOc1cc(CC(=O)N[C@@H](CC(C)C)c2ccccc2N2CCCCC2)ccc1C(=O)O [Repaglinide] : top
CCCNCC(O)COc1ccccc1C(=O)CCc1ccccc1 (stereo unspecified) [Propafenone] : bottom
CN1CCCC(n2nc(Cc3ccc(Cl)cc3)c3ccccc3c2=O)CC1 (stereo unspecified) [Azelastine] : middle

## Task Into which bin does this compound go? CC(N/C(=N\C#N)Nc1ccncc1)C(C)(C)C (stereo unspecified) [Pinacidil]
## Result bottom

## Task Into which bin does this compound go? CN(C)CCOC(C)(c1ccccc1)c1ccccn1 (stereo unspecified) [Doxylamine]
## Result top

## Task Into which bin does this compound go? CN1CCN2c3ncccc3Cc3ccccc3C2C1 (stereo unspecified) [Remergil]
## Result bottom

## Task Into which bin does this compound go? CNC(=N)NCCC[C@H](N)C(=O)O
## Result middle

## Task Into which bin does this compound go? C[C@H]1O[C@@H](O[C@H]2[C@@H](O)C[C@H](O[C@H]3[C@@H](O)C[C@H](O[C@H]4CC[C@@]5(C)[C@H](CC[C@@H]6[C@@H]5C[C@@H](O)[C@]5(C)[C@@H](C7=CC(=O)OC7)CC[C@]65O)C4)O[C@@H]3C)O[C@@H]2C)C[C@H](O)[C@@H]1O [Digoxin]
## Result top

## Task Into which bin does this compound go? CN(C)[C@@H]1C(O)=C(C(=O)NCN2CCCC2)C(=O)[C@@]2(O)C(O)=C3C(=O)c4c(O)cccc4[C@@](C)(O)[C@H]3C[C@@H]12 [Rolitetracycline]
## Result middle

## Task Into which bin does this compound go? CC(=O)OCC(=O)[C@@]1(O)CC[C@H]2[C@@H]3CCC4=CC(=O)CC[C@]4(C)[C@H]3C(=O)C[C@@]21C [Cortisone acetate]
## Result middle

## Task Into which bin does this compound go? COc1cc2nc(N3CCN(C(=O)c4ccco4)CC3)nc(N)c2cc1OC [Prazosin]
## Result top

====

# Test system: E18 rat cortical neuron-glia co-culture
# method_summary: fiber score / MBP score (myelination specific beyond OL differentiation) (ratio); higher = more myelination-specific MBP alignment
# condition_set: 1 µM; treatment time: 8 days (DIV5-DIV13)
Respond with Condition met for fiber score / MBP score values of 0.8 and above, Condition not met for values below.

NS(=O)(=O)c1cc(C(=O)O)c(NCc2ccco2)cc1Cl [Furosemide] : Condition met

## Task Reported fiber score / MBP score at or above 0.8? NC(=O)N1c2ccccc2C=Cc2ccccc21 [Carbamazepine]
## Result Condition not met

## Task Reported fiber score / MBP score at or above 0.8? C#C[C@]1(O)CC[C@H]2[C@@H]3[C@H](C)CC4=C(CCC(=O)C4)[C@H]3CC[C@@]21C [Tibolone]
## Result Condition not met

## Task Reported fiber score / MBP score at or above 0.8? CN(CCCN1c2ccccc2CCc2ccccc21)CC(=O)c1ccc(Cl)cc1 [Lofepramine]
## Result Condition not met

## Task Reported fiber score / MBP score at or above 0.8? Cc1cn([C@H]2C[C@H](N=[N+]=[N-])[C@@H](CO)O2)c(=O)[nH]c1=O [Zidovudine]
## Result Condition met

## Task Reported fiber score / MBP score at or above 0.8? CC1COc2c(N3CCN(C)CC3)c(F)cc3c(=O)c(C(=O)O)cn1c23 (centres undefined) [Ofloxacin]
## Result Condition not met

## Task Reported fiber score / MBP score at or above 0.8? CCOC(=O)C1=C(C)NC(C)=C(C(=O)OC)C1c1cccc(Cl)c1Cl (centres undefined) [Felodipine]
## Result Condition met

## Task Reported fiber score / MBP score at or above 0.8? COc1cc(/C=C/c2ccc(O)cc2)cc(OC)c1 [Pterostilbene]
## Result Condition not met

====

# Tested on: E18 rat cortical neuron-glia co-culture
# method_summary: fiber score / MBP score (myelination specific beyond OL differentiation) (ratio); higher = more myelination-specific MBP alignment
# condition_set: 5 µM; treatment time: 8 days (DIV5-DIV13)
measured_endpoint: fiber score / MBP score
Please reply with the number alone, leaving off any unit.

## Task Entry COC(=O)C1=C(C)NC(C)=C(C(=O)OC(C)C)C1c1cccc2nonc12 (centres undefined) [Isradipine] has what fiber score / MBP score?
## Result 0.922

## Task Entry CN1CCN(CC/C=C2/c3ccccc3Sc3ccc(S(=O)(=O)N(C)C)cc32)CC1 [Thiothixene] has what fiber score / MBP score?
## Result 1.29

====

The reader will find reported myelination values listed item by item below.
# Test system: E18 rat cortical neuron-glia co-culture
# method_summary: myelination (MBP fiber length per Olig2+ nucleus), % of 1 µM DAPT response (DMSO = 0) (% of DAPT); higher = more myelination, active = 50 or more
# condition_set: 5 µM; treatment time: 8 days (DIV5-DIV13)
Structures can show the parent of a compound that is named as a salt.
Please reply with the number alone, leaving off any unit.

Consider the following illustrative entries.
O=C1CN2Cc3c(ccc(Cl)c3Cl)N=C2N1 [Anagrelide hydrochloride] : -10
CC(C)(C)NCC(O)COc1cccc2c1CC(O)C(O)C2 (stereo unspecified) [Nadolol] : -7.81
CC[C@@H]1C(=O)OC[C@@H]1Cc1cncn1C [Pilocarpine] : -11.2
O=C(O[C@@H]1Cc2c(O)cc(O)cc2O[C@@H]1c1cc(O)c(O)c(O)c1)c1cc(O)c(O)c(O)c1 [Epigallocatechin gallate] : -10.9
C[C@](N)(Cc1ccc(O)c(O)c1)C(=O)O [Methyldopa] : -8.85

## Task Entry CC(C)C[C@H](NC(=O)[C@@H](COC(C)(C)C)NC(=O)[C@H](Cc1ccc(O)cc1)NC(=O)[C@H](CO)NC(=O)[C@H](Cc1c[nH]c2ccccc12)NC(=O)[C@H](Cc1cnc[nH]1)NC(=O)[C@@H]1CCC(=O)N1)C(=O)N[C@@H](CCCNC(=N)N)C(=O)N1CCC[C@H]1C(=O)NNC(N)=O [Goserelin] has what myelination?
## Result -4.2

## Task Entry O=c1n(CCCN2CCN(c3cccc(Cl)c3)CC2)nc2ccccn12 [Trazodone] has what myelination?
## Result -62.2

## Task Entry CC(=O)CC(c1ccccc1)c1c(O)c2ccccc2oc1=O (stereo unspecified) [Warfarin] has what myelination?
## Result -6.48

====

# Tested on: E18 rat cortical neuron-glia co-culture
# method_summary: fiber score / MBP score (myelination specific beyond OL differentiation) (ratio); higher = more myelination-specific MBP alignment
# condition_set: 5 µM; treatment time: 8 days (DIV5-DIV13)
Respond with 1 for fiber score / MBP score values of 0.9 and above, -1 for values below.

As a guide, the following entries are already answered.
O=C(O)CCNC(=O)c1ccc(/N=N/c2ccc(O)c(C(=O)O)c2)cc1 [Balsalazide] : -1
O=C(CCCN1CC=C(n2c(=O)[nH]c3ccccc32)CC1)c1ccc(F)cc1 : -1
Cc1cccc(C)c1OCC(C)N (centres undefined) : 1
CC(C(=O)O)c1cccc(C(=O)c2ccccc2)c1 (centres undefined) : 1
Oc1ccc(C2CNCCc3c2cc(O)c(O)c3Cl)cc1 (centres undefined) : -1

## Task Reported fiber score / MBP score at or above 0.9? CN(C)CCOC(c1ccc(Cl)cc1)c1ccccn1 (centres undefined)
## Result 1

## Task Reported fiber score / MBP score at or above 0.9? CN(C)CCc1c[nH]c2ccc(Cn3cncn3)cc12
## Result -1

## Task Reported fiber score / MBP score at or above 0.9? COC(=O)[C@H](c1ccccc1Cl)N1CCc2sccc2C1
## Result -1

====

# Test system: E18 rat cortical neuron-glia co-culture
# method_summary: fiber score / MBP score (myelination specific beyond OL differentiation) (ratio); higher = more myelination-specific MBP alignment
# condition_set: 5 µM; treatment time: 8 days (DIV5-DIV13)
Respond with label 1 for fiber score / MBP score values of 0.9 and above, label 0 for values below.

As a guide, the following entries are already answered.
c1ccc2c(c1)CCCC2C1=NCCN1 (centres undefined) : label 0
CC(=O)OCC(=O)[C@@]12OC3(CCCC3)O[C@@H]1C[C@H]1[C@@H]3CCC4=CC(=O)C=C[C@]4(C)[C@@]3(F)[C@@H](O)C[C@@]12C [Amcinonide] : label 0
CC(N)C12CC3CC(CC(C3)C1)C2 (centres undefined) : label 0

## Task Reported fiber score / MBP score at or above 0.9? NC(N)=Nc1nc(CSCC/C(N)=N/S(N)(=O)=O)cs1
## Result label 0

## Task Reported fiber score / MBP score at or above 0.9? COc1nc(C)nc(Cl)c1NC1=NCCN1
## Result label 0

## Task Reported fiber score / MBP score at or above 0.9? Nc1cc(N2CCCCC2)nc(N)[n+]1[O-]
## Result label 0

## Task Reported fiber score / MBP score at or above 0.9? CC(C)NCC(O)c1ccc(O)c(O)c1 (centres undefined)
## Result label 1

## Task Reported fiber score / MBP score at or above 0.9? CC(c1cc2ccccc2s1)N(O)C(N)=O (centres undefined)
## Result label 0

## Task Reported fiber score / MBP score at or above 0.9? O=C(O[C@H]1[C@H](Oc2ccccc2COC(=O)C2(O)C=CCCC2=O)O[C@H](CO)[C@@H](O)[C@@H]1O)c1ccccc1 (some centres undefined)
## Result label 1

## Task Reported fiber score / MBP score at or above 0.9? CC[N+](C)(CC)CCOC(=O)C(O)(c1ccccc1)C1CCCCC1 (centres undefined)
## Result label 0

## Task Reported fiber score / MBP score at or above 0.9? CC(=O)[C@@]1(O)CC[C@H]2[C@@H]3C[C@H](C)C4=CC(=O)C=C[C@]4(C)[C@@]3(F)[C@@H](O)C[C@@]21C
## Result label 0

## Task Reported fiber score / MBP score at or above 0.9? C#C[C@]1(O)CC[C@H]2[C@@H]3[C@H](C)CC4=C(CCC(=O)C4)[C@H]3CC[C@@]21C
## Result label 0

## Task Reported fiber score / MBP score at or above 0.9? CCCCCCNC(=O)n1cc(F)c(=O)[nH]c1=O
## Result label 0

## Task Reported fiber score / MBP score at or above 0.9? N#Cc1ccc(C(c2ccc(C#N)cc2)n2cncn2)cc1
## Result label 1

## Task Reported fiber score / MBP score at or above 0.9? CC(C)NCC(O)c1ccc(NS(C)(=O)=O)cc1 (centres undefined)
## Result label 0

## Task Reported fiber score / MBP score at or above 0.9? C[C@H]1COc2c(C3(N)CC3)c(F)cc3c(=O)c(C(=O)O)cn1c23
## Result label 1
